test: chemical genetic growth profiling, strain panel (AID 1159580);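 note: tested at 20 µM; growth read once vehicle control cultures reached saturation at 30 °C; 1 = growth at the plate median or of vehicle wells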; conditions: S. cerevisiae deletion strains, growth OD, locus YMR129W, hits give low values
About 2,000 (36%) of roughly 5,500 compounds were called active. Another 18% or so got no clear call; they are omitted. The list shows a part of the results.
Decide using normalized growth alone. Strictly below 1: Yes. Equal to or above 1: No.

Problem: Field: below-cutoff. Rule: recorded normalized growth strictly less than 1. Subject: `CC1(C)C=Cc2cc3ccc(=O)oc3cc2O1`
Result: Yes

Problem: Find out if reported normalized growth for `CC1=C(O)C(=O)C=C2C1=CC=C1[C@@]2(C)CC[C@@]2(C)[C@@H]3C[C@](C)(C(=O)O)CC[C@]3(C)CC[C@]12C` is less than 1
Result: Yes

Problem: Check if normalized growth falls below 1 for C[C@]12CCC3C(CC[C@H]4C[C@H](OS(=O)(=O)O)CC[C@]34C)C1CCC2=O (stereo not given in full) .
Result: No

Problem: Determine whether this compound shows normalized growth lower than 1 (ties excluded): `CCOc1ccc(C(=O)c2ccc(O)c(O)c2O)cc1`
Result: Yes

Problem: Consider `CC1(C)S[C@@H]2[C@H](NC(=O)Cc3ccccc3)C(=O)N2[C@H]1C(=O)O` . Does its normalized growth lie strictly below 1?
Result: No

Problem: Dear colleague, could you confirm whether normalized growth of `COc1ccc(C(=O)c2ccc(O)cc2)c(O)c1O` falls below 1? Thanks.
Result: Yes

Problem: Hello, is normalized growth of the following compound strictly smaller than 1? COc1c2c(cc3c1OCO3)C13C=C[C@H](OC)CC1N(C2)CC3O (stereo not given in full)
Result: Yes

###

assay: chemical genetic growth profiling, strain panel (AID 1159580);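 note: tested at 20 µM; growth read once vehicle control cultures reached saturation at 30 °C; 1 = growth at the plate median or of vehicle wells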; details: S. cerevisiae deletion strains, growth OD, locus YER016W, strain bim1, hits give low values
The campaign covered roughly 5,500 compounds. About 2,000 (36%) were called active. Another 18% or so got no clear call; they are omitted. This is one part of the list. *1 amine or outer side, *2 acyl side, *3 side chain or, on linkers, in order; H or OH if unused. Where a SMILES comes first, the peptide text is derived from it. Bridges are numbered along the chain shown (N, C = ends). Side-chain parts run from the residue outwards. [ ]: non-standard residue; d: D form. The star is where a group is joined. ξ: configuration not given here. ΔAla(E,3-NHCONH2) = NC(=O)N/C=C(/N)C(=O)O; X2 = NC1=NCCC(C(N[*:1])C(=O)[*:2])N1; Octanoyl(6-Me) = CCC(C)CCCCC(=O)*; X1 = CCC(C)C(N)C1=NC(C(=O)*)CS1; ξβ3hOrn = NCCCC(N)CC(=O)*; Orn = NCCC[CH](N)C(=O)O; Dab = NCC[CH](N)C(=O)O; Dap = NC[CH](N)C(=O)O
Property Name: normalized growth
Please reply with the value in numeric form only.

Problem: Name the reported normalized growth value associated with the compound `CC1(C)C=Cc2cc3ccc(=O)oc3cc2O1`
Result: 0.965

Problem: Please look up its normalized growth: CCC(C)C(N)C1=NC(C(=O)NC(CC(C)C)C(=O)NC(CCC(=O)O)C(=O)NC(C(=O)NCCCCC2NC(=O)C(CC(N)=O)NC(=O)C(CC(=O)O)NC(=O)C(Cc3cnc[nH]3)NC(=O)C(Cc3ccccc3)NC(=O)C(C(C)CC)NC(=O)C(CCCN)NC2=O)C(C)CC)CS1 (stereo not drawn) (cyclo(DNK([Ile-Glu-Leu-X1])[Orn]IFH); configuration not given here)
Result: 1

Problem: # query: normalized growth of entry OC(c1cc(C(F)(F)F)nc2c(C(F)(F)F)cccc12)C1CCCCN1 (stereo unspecified)
Result: 1.01

Problem: So what does the record say about normalized growth for COc1cc2c(cc1OC)[C@@]13CCN4CC5=CCOC6CC(=O)N2C1[C@H]6[C@H]5C[C@H]43 (stereo partly specified) ?
Result: 0.989

Problem: Name the recorded normalized growth for `Cc1cc(C(C)(C)C)c(O)c(C)c1CC1=NCCN1` .
Result: 1

Problem: Could you share which normalized growth value was measured for NCCCC(N)CC(=O)NCC1NC(=O)C(CO)NC(=O)C(N)CNC(=O)C(C2CCN=C(N)N2)NC(=O)/C(=C\NC(N)=O)NC1=O (stereo not drawn) (H-[Dap]S[Dap](ξβ3hOrn)[ΔAla(E,3-NHCONH2)][X2]; lactam 1-C; configuration not given here) ?
Result: 0.993

Problem: Quick one: normalized growth for `CNS(=O)(=O)Cc1ccc2[nH]cc(CCN(C)C)c2c1` ?
Result: 1.02

Problem: For the compound CCC(C)CCCCC(=O)NC(CCN)C(=O)NC(C(=O)NC(CCN)C(=O)NC1CCNC(=O)C(C(C)O)NC(=O)C(CCN)NC(=O)C(CCN)NC(=O)C(CC(C)C)NC(=O)C(Cc2ccccc2)NC(=O)C(CCN)NC1=O)C(C)O (stereo unspecified) ({Octanoyl(6-Me)}-[Dab]T[Dab][Dab][Dab]FL[Dab][Dab]T; lactam 4-C; configuration not given here) , what normalized growth is on record?
Result: 1

Problem: I have this compound here, COC1(C)CCC2OC2(C)CCC2C1CC2(C)C (stereo unspecified) , and I need its recorded normalized growth.
Result: 1.01

Problem: Query: normalized growth; subject: `CC1=NN(c2ccccc2)C(=O)C1`
Result: 0.99

Problem: Requested field: normalized growth. Item: CC(=O)Oc1cc2c(c(C)c1OC(C)=O)CC1OC13C2(C)CCC1(C)C2CC(C)(C(=O)O)CCC2(C)CCC13C (stereo unspecified)
Result: 1.02

Problem: Fill in the blank: the reported normalized growth of CC1=CC2C(C(C)C)CCC(C)(O)C2CC1 (stereo unspecified) is ____.
Result: 0.998

Problem: May I ask what normalized growth has been recorded for `COc1ccc2c(c1)[C@]13CCCC[C@H]1[C@H](C2)N(C)CC3` ?
Result: 1

Problem: Looking for the measured normalized growth of `CN(C)CCc1c[nH]c2ccc(CS(=O)(=O)N3CCCC3)cc12` , can you help?
Result: 1.05

Problem: Looking for the measured normalized growth of `Cc1cc(C(C)(C)C)cc(C)c1CC1=NCCN1` , can you help?
Result: 0.973

Problem: Entry `Cc1ccc(N(CC2=NCCN2)c2cccc(O)c2)cc1` has what normalized growth?
Result: 1.02
